Source listed as the Human Domainome abundance scans (Beltran et al. 2025).

B1: Triacylglycerol hydrolase DDHD2, residues 389 to 447; numbered along this chain, O94830 (parent)
chain: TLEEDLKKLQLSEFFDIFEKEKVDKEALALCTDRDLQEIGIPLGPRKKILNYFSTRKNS

# Variants of: B1
# procedure-details: abundance fitness (aPCA) (normalised: wild type 0, dead -1); higher = more abundant; growth selection in yeast, the domain comes from the species named
# condition-notes: Homo sapiens
So basically, the class depends on measured abundance fitness, and the ranges are L = under -0.4, M = from -0.4 up to -0.05, H = -0.05 and over

TLEEDLKKLQLSEFFDIFEKEKVDKEALALCTDRILQEIGIPLGPRKKILNYFSTRKNS [D35I]: L
TLEEDLKKLQLSEFFDIFEKEKVDKEALALCTDRDLQEIGIPLGPRKKILNYFSTHKNS [R56H]: M
TLEEDLKKLQLSEFFDIFEKEKVDKEALALCTDRDLQEIGIPLGPRKKFLNYFSTRKNS [I49F]: L
TLEEDLKKLQLSEFFDIFEKEKVDKEALALCTDRDLVEIGIPLGPRKKILNYFSTRKNS [Q37V]: H
SLEEDLKKLQLSEFFDIFEKEKVDKEALALCTDRDLQEIGIPLGPRKKILNYFSTRKNS [T1S]: M
TLEEDLKKLQLSEFFDIFEKEKVMKEALALCTDRDLQEIGIPLGPRKKILNYFSTRKNS [D24M]: M
TLEEDLKKLQLSEFFDIFEKEIVDKEALALCTDRDLQEIGIPLGPRKKILNYFSTRKNS [K22I]: L
TLEEDLKKLQLSEFFDIFEKEKVDKEALALCTDRDLQEIGIPLIPRKKILNYFSTRKNS [G44I]: H
TLEEDLKKLQLSEFFDIFEKEKVDKEALALCTDRDEQEIGIPLGPRKKILNYFSTRKNS [L36E]: M
TLEEDLKKLQLSEFFDIFEKEKVDKEAMALCTDRDLQEIGIPLGPRKKILNYFSTRKNS [L28M]: M
TLEEDLKKLQLSEFFDIFEKEKVDKEALALCTDRDLQEIGIPLGPRKKILNYFKTRKNS [S54K]: M
TLEEDLKKLQLSEFFDIFEKEKVDKEALALCTDRDLQEIGIPLGPRKAILNYFSTRKNS [K48A]: H
TLEEDLKKLQLSEFFDIFEKEKVDKEALALCTDRDLQEIGIPEGPRKKILNYFSTRKNS [L43E]: H
TLEEDLKKLQLSEFFDIFEKEKVDKEAGALCTDRDLQEIGIPLGPRKKILNYFSTRKNS [L28G]: M
TLEEDLKKLQLSEFFDIFEKEKVDKEALALCTDRDLQEIGIPLGPRKKILNYFSARKNS [T55A]: H
